B1: C2CD2L (parent)
chain: EPAGSLRELGVWRSLLRLRATRAG

variants of: B1; test: protein stability index of a GFP-peptide fusion (GPS, HEK-293T) (PSI 1-6); higher = more stable; settings: c terminus: a fixed tail appended;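 further: lentivirally expressed fusions sorted by FACS into six bins by GFP to DsRed ratio, PSI derived from sequencing read proportions per bin multiplied by bin number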
readout.kind: protein stability index
Give bare numbers.

Previously resolved entries follow.
mutation.id	protein stability index
A23K	2.94
E1L	2.31
G24F	2.11
W12M	2.42
S5F	1.21
G4Q	3.42

Please give protein stability index, item by item, for the list that follows.
1. L6A
2. S14D
3. L16Y
4. L18F

Resp:
1: 3.35; 2: 1.56; 3: 2.3; 4: 2.07

Please give protein stability index, item by item, for the list that follows.
1. L16G
2. R22H
3. S14A

Resp:
1: 3.32; 2: 2.01; 3: 1.66
